# TEST DETAILS: protease stability score; higher = more stable; yeast display proteolysis, trypsin and chymotrypsin;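 further: log10 excess protease needed over predicted unfolded state with 0 meaning unfolded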
Quick rule for you: protease stability score at 0.4 or higher means criterion met, lower means criterion not met.

Can "DEETQNTRMEEFFKALKTGDEDRAVELADENVKIEIGDRSVSGREVVRHYVQDFQRRVDHNEIKSMRVHNGRAEVTMVVNHNGTTDTRVVHLEAENGRVRRISVDHP" be said to have protease stability score at or above 0.4?
criterion met

Please answer likewise for "DESHARHLQRVFEKNDWQRLVELADEDVRIQIGNYDYHGRTAAQQMFEKLSKQIDHMEVKSMRVQGNKLQFDFEVNFNGKRNQAHFEMHFSNGRIKKIRFQFRDEEHEKDFDRHFS"
criterion met

Please answer likewise for "EEEAHTHAEQWFRVLQTGDEERAMKMVDKNAQLQIGDKDIHGREDVRKYVHDRKNEQDVEIKRYSIEVSGNSFNVKIHVRMEHNGQPRTDVLDMKFEVSNGRLTKVSVQSNG"
criterion not met

Please answer likewise for "DERKEAKKWLDRLNKALHTGDSDKLKDMVDKDVRFNIGDKEIHGREQYVKHVQTRAEQIDDVQIHIHSIHVSGDEIVLTYHVVYNVNGRQESDVFNLVMVKNNGRLVVRSVTKG"
criterion not met

Please answer likewise for "DEEHRAKTAQDDIRRINQNGDPDQMHRLADKDARIQIGDTFLHGREQIKEQMERDNKKFDHQQVEIKKVEVRGDKVRIVAEIKADFNGDNKTTRFVIYLTVKNGRVKMKKVTDG"
criterion not met

Please answer likewise for "DDDRVETVAQELAEAIMENDEDRAREMVDPNARIVYGEKDLHGREAFHTVMQLFQHRVDRVDLETVSVHNGRVKFEAVLKHNGTEHRVVFIVDAHNGKAKQVEVRDQ"
criterion met

---

# TEST DETAILS: protease stability score; higher = more stable; yeast display proteolysis, trypsin and chymotrypsin;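 further: log10 excess protease needed over predicted unfolded state with 0 meaning unfolded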
For each record, write down the corresponding protease stability score.
Answer with the value's number alone.

# input sequence: "DEDLFRRLSELMHAVTNGDEEELVKQADKDARIQYGDKVFHGMDEAARELVRQQKEIRQSWEIKSWDHQGDKVRVTIKNSQDHDGRPHSNRIDVEVKQRNGKVTTARFQTHP" ; wanted: its protease stability score
0.148

Please answer likewise for "DEKKVHEVLKKLRKALEQGNVDEMVKMGKPDVEFHFFDTKIEGLDQLHEYYKTMKDHGAELHVEETKVEGNKVEVVYVLKLGGTQVKVTAQIEIKDERVVRARAENTEEYKKRVKKG"
0.359

Please answer likewise for "DEDEERDFEEMWKVFHKGNPDDYKKMIDKDVEIRIGDKTVHGREEIVRQVHHEMNNINFQLQSVDIRVTNGRVEIDVRYVSNVNGRPDTIRYTYHASASNGKLKTAEYRISEDQQNRHRR"
-0.273

Please answer likewise for "DREEAKKVAEKAAKYFQNWNVEQLLKLIPDGGKYRIADEERHGPDVIKEVVEKQQRMGLEVEVKEVHAEGDTVHTVLDYRLGDTTATVHIQAKVQGGRIDEVQVDIPEEAQKMLKQG"
0.401

Please answer likewise for "DEEHVKKIIKKVADDLQRGDEDNLKHLMDKDVRVEIGDKEVRGKDEAAKELAKFLSRADHFQVDHVDVKGNNARIHVLVNINGRERRVTLILTMHNGRLKNVRFDPENEQTLRN"
1.18
